system_name: T1, Epidermal growth factor receptor 2 (HER2 or ErbB-2) on HER2+ SKOV3 cells (human, UniProt P04626 23-1255)
T1 construct: whole, on cells; Only claim 72 calls it 'human epidermal growth factor receptor 2 (HER2)'
protocol_text: split-luciferase complementation on HER2+ SKOV3 cells (lysates, washed); paired with β9-G3
metric: Signal-to-Background (Ratio of Relative Luminescence Units) (ratio)

binder="73JH-β10* (Fab, V domains shown, Fab fusion expressed in E. coli, used as lysate; also called 73J Fab with β10* at the C-terminus of the heavy chain) VH: EVQLVESGGGLVQPGGSLRLSCAASGFNLYSSYIHWVRQAPGKGLEWVASIYPYSSYTSYADSVKGRFTISADTSKNTAYLQMNSLRAEDTAVYYCARYYGFAMDYWGQGTLVTVSS VL: DIQMTQSPSSLSASVGDRVTITCRASQSVSSAVAWYQQKPGKAPKLLIYSASSLYSGVPSRFSGSRSGTDFTLTISSLQPEDFATYYCQQGYYYPFTFGQGTKVEIKR" observed=219
binder="β10*-9.29 (designed binder, DARPin fusion expressed in E. coli, used as lysate; also called DARPin 9.29 with N-terminal β10*) MVSGWRLFKKISGGGSGHHHHHHHHGGGSGGSDLGKKLLEAARAGQDDEVRILMANGADVNAHDFYGITPLHLAANFGHLEIVEVLLKHGADVNAFDYDNTPLHLAADAGHLEIVEVLLKYGADVNASDRDGHTPLHLAAREGHLEIVEVLLKNGADVNAQDKFGKTPFDLAIDNGNEDIAEVLQKAA" observed=4
binder="G3-β10* (designed binder, DARPin fusion expressed in E. coli; Used as lysate in the screen and later IMAC-purified; also called DARPin G3 with C-terminal β10*) MRGSHHHHHHGSDLGKKLLEAARAGQDDEVRILMANGADVNAKDEYGLTPLYLATAHGHLEIVEVLLKNGADVNAVDAIGFTPLHLAAFIGHLEIAEVLLKHGADVNAQDKFGKTAFDISIGNGNEDLAEILQKLNGGGSGGGGSGGGGSGVSGWRLFKKIS" observed=12
binder="β10*-G3 (designed binder, DARPin fusion expressed in E. coli, used as lysate; also called DARPin G3 with N-terminal β10*) MVSGWRLFKKISGGGSGHHHHHHHHGGGSGDLGKKLLEAARAGQDDEVRILMANGADVNAKDEYGLTPLYLATAHGHLEIVEVLLKNGADVNAVDAIGFTPLHLAAFIGHLEIAEVLLKHGADVNAQDKFGKTAFDISIGNGNEDLAEILQKLN" observed=7
binder="β10*-L73J (Fab, V domains shown, Fab fusion expressed in E. coli, used as lysate; also called 73J Fab with β10* at the N-terminus of the light chain) VH: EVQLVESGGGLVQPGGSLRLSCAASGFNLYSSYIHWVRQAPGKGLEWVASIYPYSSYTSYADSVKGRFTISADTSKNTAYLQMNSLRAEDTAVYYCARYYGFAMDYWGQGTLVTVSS VL: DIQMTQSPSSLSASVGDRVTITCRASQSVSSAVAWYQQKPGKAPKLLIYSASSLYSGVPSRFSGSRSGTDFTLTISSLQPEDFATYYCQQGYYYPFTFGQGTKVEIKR" observed=21

Every entry's value here was drawn from patent US20180172692A1.
